# Tested on: AsPC-1 cells
# assay.text: AsPC-1 CTG proliferation assay (120 h) (pancreatic cancer, G12D)
# Format: cell-based
# measurement.parameters: Homo sapiens, ASPC1, AsPC-1 proliferation
# Protocol: AsPC-1 CTG Proliferation Assay (120 h) (Pancreatic Cancer, G12D) The CTG assay is designed to measure quantitatively the proliferation of AsPC-1 cells (ATCC […]), using the CellTiter Glow Assay Kit (Promega G7571). […] Plates are incubated for 120 h, and cell viability is measured using CellTiter-Glo luminescent cell viability reagent (Promega product code G7570). […] IC50 values are determined from viability measurements by non-linear regression using a four-parameter model.
readout: IC50 (µM)

Entry under test: Cc1ncsc1-c1ccc(CNC(=O)[C@@H]2C[C@@H](O)CN2C(=O)[C@@H](c2cc(OCCCN3CCCN(c4nccc(-c5noc([C@@]6(C)CCCc7sc(N)c(C#N)c76)n5)n4)[C@@H](C)C3)no2)C(C)C)cc1 (single isomer, unassigned) . Its IC50 was 0.0934

(A) Cc1ncsc1-c1ccc(CNC(=O)[C@@H]2C[C@@H](O)CN2C(=O)C(c2cc(OCCCCN3CCCN(c4nccc(-c5cc([C@@]6(C)CCCc7sc(N)c(C#N)c76)on5)n4)[C@@H](C)C3)no2)C(C)C)cc1 (stereo partly shown)
(B) Cc1ncsc1-c1ccc([C@H](CCO)NC(=O)[C@@H]2C[C@@H](O)CN2C(=O)[C@H](C(C)C)n2cc(OCCCCN3CCCN(c4nccc(-c5noc([C@@]6(C)CCCc7sc(N)c(C#N)c76)n5)n4)[C@@H](C)C3)nn2)cc1
(C) Cc1ncsc1-c1ccc([C@@H](NC(=O)[C@@H]2C[C@@H](O)CN2C(=O)[C@H](C(C)C)n2cc(OCCCCN3CCCN(c4nccc(-c5noc([C@@]6(C)CCCc7sc(N)c(C#N)c76)n5)n4)[C@@H](C)C3)nn2)[C@H](C)O)cc1 (single isomer, unassigned)
### Prompt # ascending order, key=IC50 Thanks in advance for listing the labels in the requested order.
### Response C, B, A
(C: 0.042 µM, B: 0.128 µM, A: 0.372 µM)

* * *

# tested.target: KRAS4B WT (Homo sapiens, UniProt P01116)
# Construct: HiBit; expressed in transfected cells; host or cells: GP5d cells (ECACC 95090715), stably transduced with lentivirus, CMV promoter
# Sequence (P01116 1-188 isoform P01116-2): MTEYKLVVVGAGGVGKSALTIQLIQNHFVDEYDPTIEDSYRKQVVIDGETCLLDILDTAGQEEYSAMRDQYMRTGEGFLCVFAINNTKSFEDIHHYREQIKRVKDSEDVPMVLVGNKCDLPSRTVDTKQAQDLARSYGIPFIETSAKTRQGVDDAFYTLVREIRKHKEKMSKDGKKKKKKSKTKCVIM
# assay.text: HiBit KRAS4B mutant spectrum degradation assay, KRAS4B WT in GP5d cells (18 h)
# Format: cell-based
# measurement.parameters: KRAS mutation G12WT
readout: Dmax at 18 h (% Ctrl.)

Entry under test: Cc1ncsc1-c1ccc([C@H](CO)NC(=O)[C@@H]2C[C@@H](O)CN2C(=O)[C@H](C(C)C)n2cc(OC(C)CCCN3CCCN(c4nccc(-c5noc([C@@]6(C)CCCc7sc(N)c(C#N)c76)n5)n4)[C@@H](C)C3)nn2)cc1 (stereo partly shown) . Its Dmax at 18 h was 97.5

Entry under test: Cc1ncsc1-c1ccc(CNC(=O)[C@@H]2C[C@@H](O)CN2C(=O)[C@@H](c2cc(OCCCCN3CCCN(c4nccc(-c5noc([C@@]6(C)CCCc7sc(N)c(C#N)c76)n5)n4)[C@@H](C)C3)no2)C(C)C)cc1 (single isomer, unassigned) . Its Dmax at 18 h was 95.5

Entry under test: Cc1ncsc1-c1ccc([C@@H](NC(=O)[C@@H]2C[C@@H](O)CN2C(=O)[C@H](C(C)C)n2cc(OCCCCN3CCCN(c4nccc(-c5noc([C@@]6(C)CCCc7sc(N)c(C#N)c76)n5)n4)[C@@H](C)C3)nn2)[C@H](C)O)cc1 (single isomer, unassigned) . Its Dmax at 18 h was 98.0

Entry under test: Cc1ncsc1-c1ccc(CNC(=O)[C@@H]2C[C@@H](O)CN2C(=O)[C@@H](NC(=O)CCCCCN2CCCN(c3nccc(-c4noc([C@@]5(C)CCCc6sc(N)c(C#N)c65)n4)n3)[C@@H](C)C2)C(C)(C)C)cc1 . Its Dmax at 18 h was 95.4
